biological target: VEGFR-2 (human, UniProt P35968 20-1356); experiment: cell-based or functional assay
Sequence (P35968 20-1356): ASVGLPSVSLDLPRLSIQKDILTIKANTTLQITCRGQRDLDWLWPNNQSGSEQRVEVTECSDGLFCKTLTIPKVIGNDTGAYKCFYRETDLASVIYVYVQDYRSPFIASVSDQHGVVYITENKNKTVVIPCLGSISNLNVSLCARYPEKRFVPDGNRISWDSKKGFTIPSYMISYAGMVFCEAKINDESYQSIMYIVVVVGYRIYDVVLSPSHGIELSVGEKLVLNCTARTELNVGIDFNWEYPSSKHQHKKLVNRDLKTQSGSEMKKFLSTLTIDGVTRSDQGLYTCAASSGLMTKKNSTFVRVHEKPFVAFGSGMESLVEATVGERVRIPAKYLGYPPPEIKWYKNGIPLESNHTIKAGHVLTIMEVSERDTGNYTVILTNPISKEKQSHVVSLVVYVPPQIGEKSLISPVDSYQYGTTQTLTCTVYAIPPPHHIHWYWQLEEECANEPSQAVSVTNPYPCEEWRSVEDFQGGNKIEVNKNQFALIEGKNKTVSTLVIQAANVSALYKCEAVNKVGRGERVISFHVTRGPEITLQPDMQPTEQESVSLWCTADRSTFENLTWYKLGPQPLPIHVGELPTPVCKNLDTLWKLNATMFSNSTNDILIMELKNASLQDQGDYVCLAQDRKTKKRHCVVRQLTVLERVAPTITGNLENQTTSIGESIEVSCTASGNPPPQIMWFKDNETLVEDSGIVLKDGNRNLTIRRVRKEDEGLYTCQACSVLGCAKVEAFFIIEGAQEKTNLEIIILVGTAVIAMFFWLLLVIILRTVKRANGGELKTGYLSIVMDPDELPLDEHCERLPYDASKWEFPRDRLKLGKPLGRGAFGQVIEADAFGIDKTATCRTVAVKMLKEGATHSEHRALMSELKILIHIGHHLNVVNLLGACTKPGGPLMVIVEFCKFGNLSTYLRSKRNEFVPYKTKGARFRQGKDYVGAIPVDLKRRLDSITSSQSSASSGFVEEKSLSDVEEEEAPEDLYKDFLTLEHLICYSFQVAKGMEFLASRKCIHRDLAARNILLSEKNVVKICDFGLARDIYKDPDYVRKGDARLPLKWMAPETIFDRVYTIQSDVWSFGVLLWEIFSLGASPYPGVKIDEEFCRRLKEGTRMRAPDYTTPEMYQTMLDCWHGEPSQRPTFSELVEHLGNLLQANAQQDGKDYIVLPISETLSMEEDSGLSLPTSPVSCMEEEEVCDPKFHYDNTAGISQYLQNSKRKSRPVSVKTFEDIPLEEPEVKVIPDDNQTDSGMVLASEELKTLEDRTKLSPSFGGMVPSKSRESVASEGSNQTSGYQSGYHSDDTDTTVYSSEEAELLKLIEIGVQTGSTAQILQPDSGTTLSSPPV
Bridges are numbered along the chain shown (N, C = ends). [ ]: non-standard residue; d: D form. hTyr = N[C@@H](CCc1ccc(O)cc1)C(=O)O; Tle = CC(C)(C)[C@H](N)C(=O)O; F4C = not defined here
Collected pERK Assay Results (AlphaLISA p-Erk1/2, HUVEC) values appear next to each entry.
metric: pERK Assay Results (AlphaLISA p-Erk1/2, HUVEC)

{CH2CO}-WW[Tle]QVKDDLYF[hTyr]DCG-NH2 (thioether N-14; not fully specified (residue 6); also: homodimer: Lys6 joined to Lys6 of second copy by cPEG17c (Linker Structure No. 4)) [Peptide complex Dimer Structure No. 26]; ≥ 50 % activity at 100 nM
{CH2CO}-WW[Tle]DVKDDLY[F4C][hTyr]DCG-NH2 (thioether N-14; not fully specified (residue 6); reading uncertain; also: homodimer: Lys6 joined to Lys6 of second copy by cPEG17c (Linker Structure No. 4)) [Peptide complex Dimer Structure No. 30]; ≥ 50 % activity at 10 nM
{CH2CO}-WW[Tle]DVKDDLY[F4G][hTyr]DCG-NH2 (thioether N-14; also: homodimer: Lys6 joined to Lys6 of second copy by cPEG17c (Linker Structure No. 4)) [Peptide complex Dimer Structure No. 45]; ≥ 50 % activity at 20 nM

Value source: patent EP4748847A1
